Biological target: UniProtKB P49327
Sequence (P49327 whole entry): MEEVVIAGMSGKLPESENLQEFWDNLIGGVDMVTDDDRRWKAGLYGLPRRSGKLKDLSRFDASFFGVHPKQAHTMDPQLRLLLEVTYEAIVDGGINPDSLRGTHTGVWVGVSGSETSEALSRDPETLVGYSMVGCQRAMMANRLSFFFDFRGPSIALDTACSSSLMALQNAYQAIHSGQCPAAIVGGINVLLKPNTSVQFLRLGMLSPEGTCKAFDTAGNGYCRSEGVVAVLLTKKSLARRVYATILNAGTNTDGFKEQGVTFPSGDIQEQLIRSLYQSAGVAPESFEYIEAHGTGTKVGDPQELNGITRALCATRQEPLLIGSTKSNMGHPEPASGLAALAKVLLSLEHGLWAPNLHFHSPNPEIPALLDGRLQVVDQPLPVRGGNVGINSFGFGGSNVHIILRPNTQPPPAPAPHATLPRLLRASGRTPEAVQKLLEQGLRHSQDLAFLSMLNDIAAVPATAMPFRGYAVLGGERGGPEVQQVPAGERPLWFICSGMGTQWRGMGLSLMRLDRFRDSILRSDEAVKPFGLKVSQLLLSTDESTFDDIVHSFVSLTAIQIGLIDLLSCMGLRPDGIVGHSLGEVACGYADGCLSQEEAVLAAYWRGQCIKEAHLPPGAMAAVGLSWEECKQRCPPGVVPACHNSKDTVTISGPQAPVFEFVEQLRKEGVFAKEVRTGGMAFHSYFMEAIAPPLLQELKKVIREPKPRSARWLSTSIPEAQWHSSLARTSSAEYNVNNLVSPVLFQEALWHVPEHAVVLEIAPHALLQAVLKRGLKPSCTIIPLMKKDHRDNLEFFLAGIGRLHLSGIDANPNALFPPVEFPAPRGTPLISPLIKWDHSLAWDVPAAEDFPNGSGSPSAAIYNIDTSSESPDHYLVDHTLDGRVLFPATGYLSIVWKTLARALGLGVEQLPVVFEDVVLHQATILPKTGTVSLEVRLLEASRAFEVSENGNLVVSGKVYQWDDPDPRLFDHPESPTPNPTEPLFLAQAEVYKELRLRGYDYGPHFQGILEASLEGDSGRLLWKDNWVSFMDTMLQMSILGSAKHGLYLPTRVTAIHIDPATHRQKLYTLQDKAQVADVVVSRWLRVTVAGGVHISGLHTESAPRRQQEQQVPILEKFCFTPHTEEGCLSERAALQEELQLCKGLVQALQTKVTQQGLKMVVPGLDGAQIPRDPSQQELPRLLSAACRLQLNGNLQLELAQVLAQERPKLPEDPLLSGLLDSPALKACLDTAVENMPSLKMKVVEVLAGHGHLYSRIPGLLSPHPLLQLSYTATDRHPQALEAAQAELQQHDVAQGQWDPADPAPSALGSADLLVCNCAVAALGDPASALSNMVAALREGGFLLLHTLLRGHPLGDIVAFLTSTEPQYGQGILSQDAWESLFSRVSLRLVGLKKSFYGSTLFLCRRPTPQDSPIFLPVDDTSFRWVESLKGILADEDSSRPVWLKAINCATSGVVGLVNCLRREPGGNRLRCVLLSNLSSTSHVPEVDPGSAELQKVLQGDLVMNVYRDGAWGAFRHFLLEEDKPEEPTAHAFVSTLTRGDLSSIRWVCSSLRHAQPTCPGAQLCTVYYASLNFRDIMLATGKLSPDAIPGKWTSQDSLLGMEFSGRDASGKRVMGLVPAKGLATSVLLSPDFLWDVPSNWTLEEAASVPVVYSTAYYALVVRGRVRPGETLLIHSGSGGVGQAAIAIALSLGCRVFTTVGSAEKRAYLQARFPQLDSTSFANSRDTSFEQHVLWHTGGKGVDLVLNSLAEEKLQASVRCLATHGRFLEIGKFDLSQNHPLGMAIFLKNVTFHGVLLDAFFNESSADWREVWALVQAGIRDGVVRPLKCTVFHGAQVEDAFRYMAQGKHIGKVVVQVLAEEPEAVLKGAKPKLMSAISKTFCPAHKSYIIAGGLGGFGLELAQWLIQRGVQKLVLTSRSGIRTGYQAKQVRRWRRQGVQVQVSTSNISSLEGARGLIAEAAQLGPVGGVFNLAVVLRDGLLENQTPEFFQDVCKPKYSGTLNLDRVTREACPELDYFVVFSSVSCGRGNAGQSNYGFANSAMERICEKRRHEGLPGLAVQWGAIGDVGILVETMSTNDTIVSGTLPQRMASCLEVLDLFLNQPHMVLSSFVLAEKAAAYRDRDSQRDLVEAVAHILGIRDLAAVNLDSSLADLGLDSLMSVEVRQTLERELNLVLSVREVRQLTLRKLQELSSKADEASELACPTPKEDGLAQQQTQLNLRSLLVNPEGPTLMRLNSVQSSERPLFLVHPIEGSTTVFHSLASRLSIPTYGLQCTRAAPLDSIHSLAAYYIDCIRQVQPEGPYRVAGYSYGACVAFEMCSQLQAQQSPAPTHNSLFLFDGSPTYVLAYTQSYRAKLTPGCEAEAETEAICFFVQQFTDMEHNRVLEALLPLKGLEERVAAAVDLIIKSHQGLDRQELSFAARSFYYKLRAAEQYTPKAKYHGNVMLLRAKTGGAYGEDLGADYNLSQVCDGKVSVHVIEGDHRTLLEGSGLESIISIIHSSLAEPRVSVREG
Assay: inhibition of human FAS-TE enzyme activity – biochemical, endpoint fluorescence intensity, uHTS hits, dose response (AID 624327);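 also: fluorescence from hydrolysis of an O-methyl fluorescein acyl ester substrate by the enzyme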
Type: functional
Calls of active or inactive are those of the source.
measurement.type: IC50

Before answering, review these 4 worked examples.
smiles.input	experimental.target	IC50
COc1ccc(-c2nn(CCC#N)cc2C(=O)Nc2ccc(C(C)=O)cc2)cc1[N+](=O)[O-]	UniProtKB P49327	1.41 µM (active)
CN(CCOc1ccccc1)CC(=O)Nc1ccc([N+](=O)[O-])cc1Cl	UniProtKB P49327	9.54 µM (active)
O=C(c1cc(COc2cccc(C(F)(F)F)c2)on1)N1C[C@@H]2CCC[C@H]1C2	UniProtKB P49327	12.4 µM (active)
Nc1c(-c2cccc(Cl)c2)cnn1-c1cccc([N+](=O)[O-])c1	UniProtKB P49327	11 µM (active)

Then this molecule:
Query: Reported IC50, molecule O=C(CSc1ccc([N+](=O)[O-])cn1)Nc1ccc2c(c1)OCCO2 : ____
Reply: 1.51 µM (active)

----------
Test: NIH3T3 cell viability loss – ATP luminescence, mouse fibroblasts, counter-screen, dose response (AID 2010);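 also: cells exposed to compound for about 90 hours before reading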
Format: functional, cell-based
Activity calls are given as the source filed them.
measurement.type: EC50

Worked examples follow.
compound	EC50
Cc1ccc(-n2cc(CNCCCn3ccnc3C)c(-c3ccc(F)cc3)n2)cc1	14.4 µM (active)
COc1cc(CN2CCCC(CO)(Cc3cccc(Cl)c3)C2)cc2c1OCO2 (stereo not drawn)	> 60 µM (not active)
CCN1/C(=C/c2ccc3cccc(C)c3[n+]2CC)Sc2ccccc21	5.26 µM (active)
CC(C)(C)NC(=O)C(c1c[nH]c2ccccc12)N(C(=O)Cn1nnc(-c2ccc(Cl)cc2)n1)c1ccccc1F (stereo not drawn)	> 60 µM (not active)
Cc1ccc(-n2nnnc2C(Cl)(Cl)c2nnnn2-c2ccc(C)cc2)cc1	15 µM (active)
CCOC(=O)N1CCC(N2CCCC(C(=O)c3ccc4cc(OC)ccc4c3)C2)CC1 (stereo not drawn)	56.6 µM (active)
O=C(NCCCN1CCOCC1)c1ccc(Sc2ccc(F)cc2)c([N+](=O)[O-])c1	> 60 µM (inconclusive)

Let us examine a further case.
Query: # lookup: EC50 of Cc1ccccc1C1c2[nH]c3ccccc3c2C[C@H]2C(=O)N(C3CCN(Cc4ccccc4)CC3)CC(=O)N12 (stereo partly drawn)
Reply: 13.3 µM (active)

----------
Below, each entry is listed with its recorded AC50.
Target: Heat shock protein HSP 90-alpha (Homo sapiens)
Type: functional, organism-based
The source made the active and inactive calls.

For orientation, consider the following solved cases.
molecule	reported.value
COc1ccccc1C(=O)NNC(=S)NC(=O)c1cccs1	3.85 µM (active)
Cc1ccc(-n2nnnc2C(Cl)(Cl)c2nnnn2-c2ccc(C)cc2)cc1	1.27 µM (active)
COc1ccc(NC(=O)c2sc3ncnc(N4CCN(c5ccccn5)CC4)c3c2C)cc1Cl	6.41 µM (active)
CC(C)N1CCN(c2ccc(OCC3COC(Cn4cncn4)(c4ccc(Cl)cc4Cl)O3)cc2)CC1 (centres undefined)	2.19 µM (active)

Query: Name the reported AC50 value associated with the molecule O=C(Nc1ccccc1)c1nnsc1[S+]([O-])c1ccc(Cl)cc1 (centres undefined)
Reply: < 0.195 µM (active)

Query: Bench note: what AC50 did O=C(/C=C/c1cccc([N+](=O)[O-])c1)c1cccs1 show?
Reply: 4.16 µM (active)

Query: Name the recorded AC50 for CC(C)N1CCN(c2ccc(OC[C@H]3CO[C@](Cn4cncn4)(c4ccc(Cl)cc4Cl)O3)cc2)CC1 .
Reply: 1.41 µM (active)

Query: Which AC50 reading was recorded for the molecule O=C1C2C3C=CC(CNS(=O)(=O)c4ccccc4)(O3)C2C(=O)N1c1ccc(Cl)cc1 (centres undefined) ?
Reply: 7.09 µM (active)

Query: Returns the measured AC50 for the input molecule. Input: Clc1ccc(C(Cn2ccnc2)OCc2csc3c(Cl)cccc23)c(Cl)c1 (centres undefined) [SERTACONAZOLE NITRATE]
Reply: 0.233 µM (active)

Ref: ChEMBL document CHEMBL1201862
